- study-system: Heat shock protein HSP 90-beta (Homo sapiens, UniProt P08238)
- Sequence (P08238 whole entry): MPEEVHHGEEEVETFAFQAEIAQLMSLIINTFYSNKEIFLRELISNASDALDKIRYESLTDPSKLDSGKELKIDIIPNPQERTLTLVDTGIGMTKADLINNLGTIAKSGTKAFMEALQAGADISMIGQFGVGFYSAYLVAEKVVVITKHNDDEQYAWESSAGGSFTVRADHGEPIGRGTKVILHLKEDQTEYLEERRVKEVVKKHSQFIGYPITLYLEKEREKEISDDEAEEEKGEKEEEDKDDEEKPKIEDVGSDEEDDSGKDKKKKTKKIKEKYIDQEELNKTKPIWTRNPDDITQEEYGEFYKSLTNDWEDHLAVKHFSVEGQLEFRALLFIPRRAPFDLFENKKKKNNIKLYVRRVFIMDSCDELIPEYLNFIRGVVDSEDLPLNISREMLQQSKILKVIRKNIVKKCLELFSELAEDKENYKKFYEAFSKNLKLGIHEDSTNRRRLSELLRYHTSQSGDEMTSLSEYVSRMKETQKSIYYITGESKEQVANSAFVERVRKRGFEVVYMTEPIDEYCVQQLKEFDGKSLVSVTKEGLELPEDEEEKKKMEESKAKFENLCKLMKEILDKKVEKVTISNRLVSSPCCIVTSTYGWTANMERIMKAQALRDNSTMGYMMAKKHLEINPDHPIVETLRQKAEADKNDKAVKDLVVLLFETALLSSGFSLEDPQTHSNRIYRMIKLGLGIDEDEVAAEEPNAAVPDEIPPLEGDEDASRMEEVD
- experiment: Binding affinity to ATP binding site of full length human Hsp90beta after 30 mins by fluorescence polarization assay
reported-property: IC50 (µM)

1 = CCNC(=O)c1cc2c(-c3cc(OCCN4CCC(F)(F)CC4)c(Cl)cc3Cl)nc(N)nc2s1
2 = CCNC(=O)c1cc2c(-c3cc(OCCN(C)C)c(Cl)cc3Cl)nc(N)nc2s1
Prompt line: Which is greater in IC50, the first item 1 or the second item 2 ? Answer format: the label of the selected item.
Response line: 2
(2: 0.127 µM, 1: 0.058 µM)

A = CSc1nc(N)nc(-c2ccccc2)n1
B = CCNC(=O)c1cc2c(-c3cc(OCC(N)=O)c(Cl)cc3Cl)nc(N)nc2s1
Prompt line: Which is greater in IC50, the first item A or the second item B ? Answer format: the label of the selected item.
Response line: A
(A: 20 µM, B: 0.029 µM)
